test system: Candida albicans; assay: Antifungal activity against Candida albicans ATCC 76615 assessed as reduction in fungal growth incubated for 24 hrs by two fold broth dilution method; type: functional
READOUT TYPE: MIC
Form entry: enter the amount, then its unit.

In the examples that follow, each entry is paired with its recorded MIC.
O=C(/C=C/C(=O)N1CCCC12Cc1ccccc1NC2=O)Nc1ccccc1[N+](=O)[O-] (centres undefined)
4 µg/mL
O=C(/C=C/C(=O)N1CCCC12Cc1ccccc1NC2=O)Nc1ccc(Cl)cc1Cl (centres undefined)
4 µg/mL
COc1cc(NC(=O)/C=C/C(=O)N2CCCC23Cc2ccccc2NC3=O)c(OC)cc1Cl (centres undefined)
8 µg/mL
O=C(/C=C/C(=O)N1CCCC12Cc1ccccc1NC2=O)Nc1ccccc1Cl (centres undefined)
4 µg/mL
Cc1cccc(NC(=O)/C=C/C(=O)N2CCCC23Cc2ccccc2NC3=O)c1 (centres undefined)
16 µg/mL
O=C(/C=C/C(=O)N1CCCC12Cc1ccccc1NC2=O)Nc1cccc([N+](=O)[O-])c1 (centres undefined)
2 µg/mL
COc1ccccc1NC(=O)/C=C/C(=O)N1CCCC12Cc1ccccc1NC2=O (centres undefined)
8 µg/mL
Cc1ccccc1NC(=O)/C=C/C(=O)N1CCCC12Cc1ccccc1NC2=O (centres undefined)
8 µg/mL
O=C(/C=C/C(=O)N1CCCC12Cc1ccccc1NC2=O)Nc1ccc(Br)cc1 (centres undefined)
8 µg/mL
O=C(/C=C/C(=O)N1CCCC12Cc1ccccc1NC2=O)Nc1ccc(Cl)cc1 (centres undefined)
4 µg/mL

// each listed molecule needs a value for MIC
1. COc1ccc(NC(=O)/C=C/C(=O)N2CCCC23Cc2ccccc2NC3=O)cc1 (centres undefined)
2. O=C(/C=C/C(=O)N1CCCC12Cc1ccccc1NC2=O)Nc1ccc(F)cc1 (centres undefined)
3. Cc1ccc(NC(=O)/C=C/C(=O)N2CCCC23Cc2ccccc2NC3=O)cc1 (centres undefined)

["16 µg/mL", "4 µg/mL", "32 µg/mL"]

// each listed molecule needs a value for MIC
1. OC(Cn1cncn1)(Cn1cncn1)c1ccc(F)cc1F [FLUCONAZOLE]
2. O=C(/C=C/C(=O)N1CCCC12Cc1ccccc1NC2=O)Nc1ccc(Cl)c(F)c1 (centres undefined)
3. COc1cccc(NC(=O)/C=C/C(=O)N2CCCC23Cc2ccccc2NC3=O)c1 (centres undefined)
4. NC(=O)OC[C@H](O)[C@@H](O)[C@H](N)C(=O)N[C@H](C(=O)O)[C@H]1O[C@@H](n2cc(CO)c(=O)[nH]c2=O)[C@H](O)[C@@H]1O [POLYOXIN B]
5. Cc1cc(C)cc(NC(=O)/C=C/C(=O)N2CCCC23Cc2ccccc2NC3=O)c1 (centres undefined)
6. O=C(/C=C/C(=O)N1CCCC12Cc1ccccc1NC2=O)Nc1cccc2ccccc12 (centres undefined)

1: 4 µg/mL; 2: 2 µg/mL; 3: 8 µg/mL; 4: 8 µg/mL; 5: 16 µg/mL; 6: 8 µg/mL

* * *

I'd appreciate it if you could supply MIC values for the items below.
tested on: Cryptococcus neoformans; assay: Antifungal activity against Cryptococcus neoformans ATCC 32719 incubated for 72 hrs in presence of fluconazole by checker board assay; format: functional
Answers are plain numbers, in mg/L.

In the examples that follow, each entry is paired with its recorded MIC.
O=C(/C=C/C(=O)N1CCCC12Cc1ccccc1NC2=O)Nc1ccc(F)cc1 (centres undefined)
2
O=C(/C=C/C(=O)N1CCCC12Cc1ccccc1NC2=O)Nc1cccc([N+](=O)[O-])c1 (centres undefined)
4
O=C(/C=C/C(=O)N1CCCC12Cc1ccccc1NC2=O)Nc1ccc(Cl)c(F)c1 (centres undefined)
4

Okay, next one:
What value of MIC has been reported for the following compound? O=C(/C=C/C(=O)N1CCCC12Cc1ccccc1NC2=O)Nc1ccccc1[N+](=O)[O-] (centres undefined)
8

* * *

system: Aspergillus flavus; assay: Antifungal activity against Aspergillus flavus ATCC 16870 assessed as polyoxin B MIC incubated for 72 hrs by checker board assay; type: functional
READOUT TYPE: MIC (µg/mL)
Numbers only, in µg/mL.

In the examples that follow, each entry is paired with its recorded MIC.
O=C(/C=C/C(=O)N1CCCC12Cc1ccccc1NC2=O)Nc1cccc([N+](=O)[O-])c1 (centres undefined)
4
O=C(/C=C/C(=O)N1CCCC12Cc1ccccc1NC2=O)Nc1ccc(Cl)c(F)c1 (centres undefined)
8
O=C(/C=C/C(=O)N1CCCC12Cc1ccccc1NC2=O)Nc1ccccc1[N+](=O)[O-] (centres undefined)
4

Okay, next one:
What value of MIC has been reported for the following compound? O=C(/C=C/C(=O)N1CCCC12Cc1ccccc1NC2=O)Nc1ccc(F)cc1 (centres undefined)
4

* * *

test system: Candida albicans; experiment: Synergistic antifungal activity against Candida albicans ATCC 76615 assessed as fractional inhibitory concentration index incubated for 72 hrs in presence of polyoxin B by checker board assay; type: functional
READOUT TYPE: fractional inhibitory concentration index (FICI)
Numbers only.

In the examples that follow, each entry is paired with its recorded fractional inhibitory concentration index (FICI).
O=C(/C=C/C(=O)N1CCCC12Cc1ccccc1NC2=O)Nc1cccc([N+](=O)[O-])c1 (centres undefined)
1.5
O=C(/C=C/C(=O)N1CCCC12Cc1ccccc1NC2=O)Nc1ccccc1[N+](=O)[O-] (centres undefined)
1
O=C(/C=C/C(=O)N1CCCC12Cc1ccccc1NC2=O)Nc1ccc(Cl)c(F)c1 (centres undefined)
2

What value of fractional inhibitory concentration index (FICI) has been reported for the following compound? O=C(/C=C/C(=O)N1CCCC12Cc1ccccc1NC2=O)Nc1ccc(F)cc1 (centres undefined)
0.75

* * *

test system: Aspergillus flavus; test: Antifungal activity against fluconazole resistant Aspergillus flavus ATCC 16870 assessed as reduction in fungal growth incubated for 24 hrs by two fold broth dilution method; type: functional
I'd appreciate it if you could supply MIC values for the items below.
Form entry: enter the amount, then its unit.

In the examples that follow, each entry is paired with its recorded MIC.
O=C(/C=C/C(=O)N1CCCC12Cc1ccccc1NC2=O)Nc1ccc(Cl)cc1 (stereo not given)
64 µg/mL
O=C(/C=C/C(=O)N1CCCC12Cc1ccccc1NC2=O)Nc1ccc(Cl)cc1Cl (stereo not given)
64 µg/mL
O=C(/C=C/C(=O)N1CCCC12Cc1ccccc1NC2=O)Nc1ccccc1Cl (stereo not given)
16 µg/mL

// each listed molecule needs a value for MIC
1. O=C(/C=C/C(=O)N1CCCC12Cc1ccccc1NC2=O)Nc1ccc(F)cc1 (stereo not given)
2. O=C(/C=C/C(=O)N1CCCC12Cc1ccccc1NC2=O)Nc1cccc([N+](=O)[O-])c1 (stereo not given)

32 µg/mL
32 µg/mL

* * *

I'd appreciate it if you could supply MIC values for the items below.
test system: Aspergillus flavus; assay: Antifungal activity against Aspergillus flavus ATCC 16870 assessed as reduction in fungal growth incubated for 24 hrs by two fold broth dilution method; type: functional
Give bare numbers, in µg/mL.

// each listed compound needs a value for MIC
1. O=C(/C=C/C(=O)N1CCCC12Cc1ccccc1NC2=O)Nc1ccc(Cl)cc1Cl (centres undefined)
2. COc1cc(NC(=O)/C=C/C(=O)N2CCCC23Cc2ccccc2NC3=O)c(OC)cc1Cl (centres undefined)
3. COc1ccccc1NC(=O)/C=C/C(=O)N1CCCC12Cc1ccccc1NC2=O (centres undefined)
4. COc1cccc(NC(=O)/C=C/C(=O)N2CCCC23Cc2ccccc2NC3=O)c1 (centres undefined)
5. OC(Cn1cncn1)(Cn1cncn1)c1ccc(F)cc1F [FLUCONAZOLE]
6. O=C(/C=C/C(=O)N1CCCC12Cc1ccccc1NC2=O)Nc1ccc(Cl)cc1 (centres undefined)
7. O=C(/C=C/C(=O)N1CCCC12Cc1ccccc1NC2=O)Nc1ccc(F)cc1 (centres undefined)

[8, 16, 16, 16, 8, 8, 8]

// each listed compound needs a value for MIC
1. O=C(/C=C/C(=O)N1CCCC12Cc1ccccc1NC2=O)Nc1cccc2ccccc12 (centres undefined)
2. O=C(/C=C/C(=O)N1CCCC12Cc1ccccc1NC2=O)Nc1ccc(Br)cc1 (centres undefined)

1. 16
2. 16

// each listed compound needs a value for MIC
1. O=C(/C=C/C(=O)N1CCCC12Cc1ccccc1NC2=O)Nc1ccccc1Cl (centres undefined)
2. Cc1cc(C)cc(NC(=O)/C=C/C(=O)N2CCCC23Cc2ccccc2NC3=O)c1 (centres undefined)
3. Cc1ccc(NC(=O)/C=C/C(=O)N2CCCC23Cc2ccccc2NC3=O)cc1 (centres undefined)

8
32
16

// each listed compound needs a value for MIC
1. Cc1ccccc1NC(=O)/C=C/C(=O)N1CCCC12Cc1ccccc1NC2=O (centres undefined)
2. O=C(/C=C/C(=O)N1CCCC12Cc1ccccc1NC2=O)Nc1ccc(Cl)c(F)c1 (centres undefined)

1: 16; 2: 4

* * *

system: Aspergillus flavus; experiment: Antifungal activity against Aspergillus flavus ATCC 16870 assessed as fluconazole MIC incubated for 72 hrs by checker board assay; type: functional
READOUT TYPE: MIC

In the examples that follow, each entry is paired with its recorded MIC.
O=C(/C=C/C(=O)N1CCCC12Cc1ccccc1NC2=O)Nc1ccc(Cl)c(F)c1 (centres undefined)
1 µg/mL
O=C(/C=C/C(=O)N1CCCC12Cc1ccccc1NC2=O)Nc1ccccc1[N+](=O)[O-] (centres undefined)
2 µg/mL
O=C(/C=C/C(=O)N1CCCC12Cc1ccccc1NC2=O)Nc1ccc(F)cc1 (centres undefined)
2 µg/mL

Record O=C(/C=C/C(=O)N1CCCC12Cc1ccccc1NC2=O)Nc1cccc([N+](=O)[O-])c1 (centres undefined) : what is its MIC with Aspergillus flavus?
1 µg/mL
